Answer each item with its documented Population Normal (%).
Test system: Fibroblast
Assay: Multiplex assay against human fibroblast
Type: toxicity, cell-based
Settings: 48 h, 10 µM, compound concentration 10 uM, replicate 2
Numeric only. Scale: %

# input Name the recorded Population Normal (%) of the molecule listed here: COc1cc2ncn(-c3cc(OCc4ccccc4C(F)(F)F)c(C(N)=O)s3)c2cc1OC [GW843682X]
# output 83

# input Name the recorded Population Normal (%) of the molecule listed here: `CC(C)OC(=O)N1CCC(Oc2ncnc3c2cnn3-c2ccc(S(C)(=O)=O)cc2F)CC1`
# output 92

# input Name the recorded Population Normal (%) of the molecule listed here: COc1ccc(-c2ccc3ncc4c(c3c2)n(-c2ccc(N3CCNCC3)c(C(F)(F)F)c2)c(=O)n4C)cn1.O=C(O)/C=C\C(=O)O [BGT-226]
# output 55

# input Name the recorded Population Normal (%) of the molecule listed here: O=C(c1cc2c(cc1F)OC(c1ccc(F)cc1)(c1ccc(Cl)cc1Cl)O2)N1CCOCC1 (configuration not stated)
# output 87

# input Name the recorded Population Normal (%) of the molecule listed here: COC(=O)C1=C(C)NC(C)=C(C(=O)OCCCN2CCC(c3ccccc3)(c3ccccc3)CC2)[C@H]1c1cccc([N+](=O)[O-])c1 [NIGULDIPINE]
# output 68

# input Name the recorded Population Normal (%) of the molecule listed here: COc1ccccc1CN[C@H]1C2CCN(CC2)[C@H]1C(c1ccccc1)c1ccccc1 [CP-96345]
# output 88

# input Name the recorded Population Normal (%) of the molecule listed here: `CC(C)Oc1ccccc1C(=O)Nc1ccccc1C(=O)Nc1cccc(S(=O)(=O)C(F)(F)F)c1`
# output 90

###

Test system: Fibroblast
Test: Multiplex assay against human fibroblast
Format: toxicity, cell-based
Details: 48 h, 1 µM, compound concentration 1 uM, replicate 1
Assign YES whenever Population Mitotic Cells (%) does not fall below 40%; assign NO whenever it does.

# input Given the entry `CNC(=O)Nc1ccc(-c2nc(N3CC4CCC(C3)O4)c3cnn(C4CCC5(CC4)OCCO5)c3n2)cc1` , answer whether its Population Mitotic Cells (%) meets or surpasses 40%.
# output YES

# input Given the entry Cc1cccc(CN2CCN(C(c3ccccc3)c3ccc(Cl)cc3)CC2)c1.Cl.Cl (centres undefined) , answer whether its Population Mitotic Cells (%) meets or surpasses 40%.
# output NO

# input Given the entry `CCc1ccc(OCc2ccccc2C(=O)Nc2ccc3nc(C)cc(N)c3c2)cc1.Cl` , answer whether its Population Mitotic Cells (%) meets or surpasses 40%.
# output NO

# input Given the entry `COc1cc(Nc2nccc(-c3cnn4nc(OC)ccc34)n2)cc(C(F)(F)F)c1` , answer whether its Population Mitotic Cells (%) meets or surpasses 40%.
# output NO

# input Given the entry CCc1nn(CCCN2CCN(c3cccc(Cl)c3)CC2)c(=O)n1CCOc1ccccc1.Cl [NEFAZODONE HYDROCHLORIDE] , answer whether its Population Mitotic Cells (%) meets or surpasses 40%.
# output YES

# input Given the entry `CC(C)OC(=O)N1CCC(Oc2ncnc3c2cnn3-c2ccc(S(C)(=O)=O)cc2F)CC1` , answer whether its Population Mitotic Cells (%) meets or surpasses 40%.
# output NO

# input Given the entry CC(C)c1noc(N2CCC(COc3ccc(-c4ccc(S(C)(=O)=O)cc4)nc3)CC2)n1 [GSK-1292263] , answer whether its Population Mitotic Cells (%) meets or surpasses 40%.
# output YES

# input Given the entry `CC(C)Oc1ccccc1C(=O)Nc1ccccc1C(=O)Nc1cccc(S(=O)(=O)C(F)(F)F)c1` , answer whether its Population Mitotic Cells (%) meets or surpasses 40%.
# output NO
